Listing of recorded z-score by entry.
# Measurement protocol: resazurin metabolic signal in HepG2 cells – cell-based, resazurin fluorescence, 24 h, PK04 Diversity Set, profiling panel (AID 1172); further: test concentration not given here
# Cond: HepG2 viability, higher = more signal
Measurement label: z-score

O=C(NCC(O)CO)[C@@]1(CCS(=O)(=O)c2ccccc2)N=C(c2ccc(OCCCO)cc2)O[C@H]1c1ccccc1 (some centres undefined)    -0.748
COc1ccc(CCNC(=O)[C@@H]2c3ccccc3C(=O)N(Cc3ccccc3OC)[C@H]2c2ccc(CO)cc2)cc1    0.851
C=CCN1Cc2ccccc2[C@H]2OC(c3ccc(OCCCO)cc3)=N[C@@]2(CCS(=O)(=O)c2ccccc2)C1=O    -0.439
COCCOC(=O)N1C(=O)[C@@]2(c3ccccc31)[C@H](c1ccc(O)cc1)N1[C@H](c3ccccc3)[C@H](c3ccccc3)OC(=O)[C@H]1[C@@H]2C(=O)N1CCCCCCC1    0.0454
